Entry source: patent US4015974A

Herbicidal effect, barnyard grass values, listed per item
- System: barnyard grass (Echinochloa crus-galli)
- Assay procedure: Pre-emergence application, herbicidal effect on barnyard grass (Table 1)
- Assay type: in vivo
- Parameters: key: 0: not damaged; 5: completely killed
- Experimental setup: 20 g./a., 20 days after application, score 0-5
Number only, please.

Compound: CCCOP(=O)(SCCC)SCC(=O)N1CCCCC1CC (stereo not shown)
Endpoint value: 5
--
Compound: CCOP(=O)(SCC(=O)N1CCCCC1C)SC(C)C (stereo not shown)
Endpoint value: 5
--
Compound: CCOP(=O)(SCC(=O)N1CCCCC1C)SCC(C)c1ccccc1 (stereo not shown)
Endpoint value: 5

stdin: So what's the measured Herbicidal effect, barnyard grass for this one? CCCCSP(=O)(OCCC)SCC(=O)N1CCCCC1C (stereo not shown)
stdout: 4

stdin: I am curious: what Herbicidal effect, barnyard grass value has been reported for CCOP(=O)(SCC(=O)N1CCCC(C)C1)SC(C)C (stereo not shown) ?
stdout: 5

stdin: I have this compound here, CCCCCCCCSP(=O)(OCC)SCC(=O)N1CCCCC1C (stereo not shown) , and I need its recorded Herbicidal effect, barnyard grass.
stdout: 4

stdin: Which Herbicidal effect, barnyard grass value belongs to CCOP(=O)(SCC(=O)N1CCCCC1C)SCc1ccc(Cl)cc1 (stereo not shown) ?
stdout: 5

stdin: If you can, please state the reported Herbicidal effect, barnyard grass value of CCOP(=O)(SCCC(C)C)SCC(=O)N1CCCC(C)C1 (stereo not shown) .
stdout: 5

stdin: Suppose we examine the compound CCOP(=O)(SCC(=O)N1CCCCC1CC)SC(C)C (stereo not shown) ; what Herbicidal effect, barnyard grass value has been reported?
stdout: 5

stdin: Using the record for CCCOP(=O)(SC)SCC(=O)N1CCCCC1C (stereo not shown) , report its Herbicidal effect, barnyard grass.
stdout: 5

* * *

- Tested on: nematode
- Assay procedure: Effect on nematode (Table 7)
- Assay type: in vivo
- Set-up: tested at 500 ppm
- Experimental setup: 500 p.p.m., 24 hours
Reported values of Mortality for individual entries
Give just the number in %; leave the unit off.

In the examples that follow, each entry is paired with its recorded Mortality.
Compound: CCOP(=O)(SCC(=O)N1CCCCC1C)SCc1ccc(CC)cc1 (stereo not shown)
Mortality [%]: 83.6

Compound: CCOP(=O)(SCC(=O)N1CCCCC1C)SCc1ccc(C(C)(C)C)cc1 (stereo not shown)
Mortality [%]: 100

Compound: CCCSP(=O)(OCC)SCC(=O)N1CCCCC1C (stereo not shown)
Mortality [%]: 100

Compound: ClC=CCCl [Dichloropropene, reference compound]
Mortality [%]: 79.3

Now consider a different compound.
stdin: For nematode, provide Mortality of CCOP(=O)(SCC(=O)N1CCCCC1C)SCc1ccccc1 (stereo not shown) please.
stdout: 100

* * *

- System: redroot pigweed (Amaranthus retroflexus)
- Assay procedure: Pre-emergence application, herbicidal effect on redroot pigweed (Table 1)
- Assay type: in vivo
- Experimental setup: 20 g./a., 20 days after application, score 0-5
Measured parameter: Herbicidal effect, redroot pigweed
// return just the number, without any unit appended

Compound: CCCCCSP(=O)(OCC)SCC(=O)N1CCCCC1CC (centres unmarked) [Compound 78]
Target entity: redroot pigweed (Amaranthus retroflexus)
Measured parameter: Herbicidal effect, redroot pigweed
Endpoint value: 4

stdin: Consider the compound CCOP(=O)(SCC(=O)N1CCC(C)CC1)SC(C)CC (centres unmarked) [Compound 27] and give its measured Herbicidal effect, redroot pigweed.
stdout: 4

stdin: Fill blank: measured Herbicidal effect, redroot pigweed of the compound CCOP(=O)(SCCC(C)C)SCC(=O)N1CCCCC1CC (centres unmarked) [Compound 79] is ____.
stdout: 5

stdin: For C=CCSP(=O)(OCCC)SCC(=O)N1CCCCC1CC (centres unmarked) [Compound 91] , what is its reported Herbicidal effect, redroot pigweed?
stdout: 3

stdin: Tell me the measured Herbicidal effect, redroot pigweed of CCCCCCSP(=O)(OCC)SCC(=O)N1CCCCC1C (centres unmarked) [Compound 62] , please.
stdout: 4

* * *

Reported values of Mortality for individual entries
- Tested on: tobacco cut worm (Spondoptera litura)
- Assay procedure: Lethal effect on tobacco cut worm (Table 5)
- Format: in vivo
- Experimental setup: tobacco cutworm, larvae on chinese cabbage leaves, 48 h
Please respond with the number in % and leave the unit unwritten.

Molecule: CCOP(=O)(SCC(=O)N1CCCCC1CC)SCc1ccc(CC)cc1 (stereo not shown)
Mortality (%): 72.0
//
Molecule: CCOP(=O)(SCC(=O)N1CCCCC1C)SCc1ccc(C(C)(C)C)cc1 (stereo not shown)
Mortality (%): 81.2
//
Molecule: CCCSP(=O)(OCC)SCC(=O)N1CCCCC1C (stereo not shown)
Mortality (%): 100
//
Molecule: CCCSP(=O)(OCC)SCC(=O)N1CCCC(C)C1 (stereo not shown)
Mortality (%): 73.3
//
Molecule: CCOP(=O)(SCC(=O)N1CCCCC1C)SCc1ccc(Cl)cc1 (stereo not shown)
Mortality (%): 75.0
//
Molecule: CCOP(=O)(SCC(=O)N1CCCCC1C)SC(C)C (stereo not shown)
Mortality (%): 83.3

# context switch: different molecule, same Mortality
stdin: Tell me the measured Mortality of CCOP(=O)(SCC(=O)N1CCCCC1C)SC(C)CC (stereo not shown) , please.
stdout: 70.0

* * *

- Test system: redroot pigweed (Amaranthus retroflexus)
- Assay procedure: Pre-emergence application, herbicidal effect on redroot pigweed (Table 1)
- Type: in vivo
- Experimental setup: 40 g./a., 20 days after application, score 0-5
Measured parameter: Herbicidal effect, redroot pigweed
Reply: number alone, nothing else.

Please review the entries below; each comes with its answer.
Molecule: CCCCOP(=O)(SCCCC)SCC(=O)N1CCCCC1CC (stereo not drawn)
Target entity: redroot pigweed (Amaranthus retroflexus)
Herbicidal effect, redroot pigweed: 3
--
Molecule: CCCCCCSP(=O)(OCC)SCC(=O)N1CCCCC1C (stereo not drawn)
Target entity: redroot pigweed (Amaranthus retroflexus)
Herbicidal effect, redroot pigweed: 5
--
Molecule: CCOP(=O)(SCC(=O)N1CCCCC1CC)SCC(C)C (stereo not drawn)
Target entity: redroot pigweed (Amaranthus retroflexus)
Herbicidal effect, redroot pigweed: 5
--
Molecule: CCCCOP(=O)(SCC(=O)N1CCCCC1CC)SC(C)CC (stereo not drawn)
Target entity: redroot pigweed (Amaranthus retroflexus)
Herbicidal effect, redroot pigweed: 5
--
Molecule: CCCCCSP(=O)(OCCC)SCC(=O)N1CCCCC1C (stereo not drawn)
Target entity: redroot pigweed (Amaranthus retroflexus)
Herbicidal effect, redroot pigweed: 5

stdin: # get_value(readout= Herbicidal effect, redroot pigweed, system= redroot pigweed (Amaranthus retroflexus)) for CCCOP(=O)(SCCC)SCC(=O)N1CCCCC1CC (stereo not drawn)
stdout: 5

stdin: Recall the recorded Herbicidal effect, redroot pigweed for C=CCSP(=O)(OCCC)SCC(=O)N1CCCCC1C (stereo not drawn) with redroot pigweed (Amaranthus retroflexus) and state it.
stdout: 5

stdin: What reported Herbicidal effect, redroot pigweed corresponds to CCCCCCCCSP(=O)(OCC)SCC(=O)N1CCCCC1C (stereo not drawn) on redroot pigweed (Amaranthus retroflexus)?
stdout: 4

* * *

- System: rice stem borer (Chilo suppressalis)
- Assay procedure: Lethal effect on rice stem borer (Table 6)
- Format: in vivo
- Experimental setup: 50 % emulsifiable concentrate, 1000 fold dilute solution, 4 days after application
Think of 90% as a floor: if Mortality stands on it or above, it is condition met; beneath it, condition not met.

Record excerpt, results attached:
Compound: CCCCSP(=O)(OC)SCC(=O)N1CCCCC1C (stereo not drawn) [Compound 31]
Group label: condition not met
--
Compound: C=C(C)CSP(=O)(OCC)SCC(=O)N1CCCCC1C (stereo not drawn) [Compound 35]
Group label: condition met
--
Compound: CCCCSP(=O)(OCC)SCC(=O)N1CCC(C)CC1 (stereo not drawn) [Compound 24]
Group label: condition not met
--
Compound: CCCCSP(=O)(OCC)SCC(=O)N1CCCCC1C (stereo not drawn) [Compound 4]
Group label: condition met

stdin: Is Mortality for C=CCSP(=O)(OCCC)SCC(=O)N1CCC(C)CC1 (stereo not drawn) [Compound 18] at or above 90%?
stdout: condition not met

stdin: Does CCOP(=O)(SCC(=O)N1CCCCC1C)SCC(C)C (stereo not drawn) [Compound 6] have a reported Mortality of at least 90%?
stdout: condition not met

stdin: Does Mortality meet or surpass 90% for C=C(Cl)CSP(=O)(OCC)SCC(=O)N1CCCCC1C (stereo not drawn) [Compound 9] ?
stdout: condition met

stdin: Please indicate if the recorded Mortality for CCOC(=O)CC(SP(=S)(OC)OC)C(=O)OCC (stereo not drawn) [Malathion, reference compound] meets or exceeds 90%.
stdout: condition not met

* * *

Herbicidal effect, redroot pigweed listing for selected compounds.
- Tested on: redroot pigweed (Amaranthus retroflexus)
- Assay procedure: Pre-emergence application, herbicidal effect on redroot pigweed (Table 1)
- Format: in vivo
- Experimental setup: 10 g./a., 20 days after application, score 0-5
- Description: Seeds of barnyard grass (Echinochloa crus-galli) and large crabgrass (Digitaria sanguinalis) as representatives of grassy weeds and those of radish, redroot pigweed (Amaranthus retroflexus), common purslane (Portulaca oleracea) and common lambsquarter (Chenopodium album) as representatives of broad-leaved weeds were individually sowed in flower pots of about 10 cm. in diameter. […] Herbicidal effects were evaluated by the numerals ranging from 0 (not damaged) to 5 (completely killed). […]
Give the value as a plain number.

Compound: CCOP(=O)(SCC(=O)N1CCCC(C)C1)SC(C)C (stereo not drawn)
Herbicidal effect, redroot pigweed: 3
--
Compound: CCOP(=O)(SCC)SCC(=O)N1CCCC(C)C1 (stereo not drawn)
Herbicidal effect, redroot pigweed: 4
--
Compound: CCCCOP(=O)(SCC(=O)N1CCCCC1CC)SC(C)C (stereo not drawn)
Herbicidal effect, redroot pigweed: 3
--
Compound: CCOP(=O)(SCCC(C)C)SCC(=O)N1CCCCC1C (stereo not drawn)
Herbicidal effect, redroot pigweed: 4
--
Compound: CCOP(=O)(SCC(=O)N1CCCCC1C)SCC(C)c1ccccc1 (stereo not drawn)
Herbicidal effect, redroot pigweed: 4

stdin: Given the compound CCCOP(=O)(SCCc1ccccc1)SCC(=O)N1CCCCC1CC (stereo not drawn) , what is its reported Herbicidal effect, redroot pigweed?
stdout: 4

stdin: Entry under review: C=C(Cl)CSP(=O)(OCC)SCC(=O)N1CCCCC1C (stereo not drawn) . Reported Herbicidal effect, redroot pigweed?
stdout: 4

stdin: // lookup Herbicidal effect, redroot pigweed for CCCOP(=O)(SCCC(C)C)SCC(=O)N1CCCCC1C (stereo not drawn)
stdout: 4

stdin: GET /values?readout=Herbicidal effect, redroot pigweed&item= C=C(Cl)CSP(=O)(OCC)SCC(=O)N1CCCCC1CC (stereo not drawn)
stdout: 4

stdin: Requested field: Herbicidal effect, redroot pigweed. Item: CCCCSP(=O)(OCC)SCC(=O)N1CCC(C)CC1 (stereo not drawn)
stdout: 3
